FYI, the data here is from ChEMBL document CHEMBL4689842.

System: Fibroblast
Experiment: Multiplex assay against human fibroblast
Assay type: toxicity, cell-based
Conditions: 24 h, 1 µM, compound concentration 1 uM, replicate 1
endpoint.label: Population Mitotic Cells (%)
Number in %, nothing else.

Example entries begin here.
> print(dat)
                                   molecule  measure.unit  recorded.measurement
1  Cc1nc(-c2cn3c(n2)-c2ccc(-c4cnn(C(C)(C)C(N)=O)c4)cc2OCC3)n(C(C)C)n1             %                    21
2  CN1CCN(CCOc2cc(OC3CCOCC3)c3c(Nc4c(Cl)ccc5c4OCO5)ncnc3c2)CC1             %                    52
3  COc1ncc(-c2ccc3nccc(-c4ccnnc4)c3c2)cc1NS(=O)(=O)c1ccc(F)cc1F             %                    41
4  COc1cc(-n2cnc3cc(-c4ccc(Cl)cc4)sc3c2=O)ccc1OCCN1CCCC1             %                    61
5  Cc1[nH]c(/C=C2\C(=O)Nc3ccc(S(=O)(=O)N(C)c4cccc(Cl)c4)cc32)c(C)c1C(=O)N1CCN(C)CC1             %                    46

## Input Recall and state the measured Population Mitotic Cells (%) for NC(=O)Nc1cc(-c2cccc(F)c2)sc1C(=O)N[C@H]1CCCNC1 .
## Output 38

## Input Recall and state the measured Population Mitotic Cells (%) for CN1CCC[C@@H]1CCO[C@](C)(c1ccccc1)c1ccc(Cl)cc1.O=C(O)/C=C/C(=O)O [CLEMASTINE FUMARATE] .
## Output 36

## Input Recall and state the measured Population Mitotic Cells (%) for Cc1nc(-c2ccc(-c3ccc(C(=O)N4CCc5cc6c(cc54)C4(CCN(C)CC4)CO6)cc3)c(C)c2)no1 .
## Output 34

## Input Recall and state the measured Population Mitotic Cells (%) for OC1(c2ccc(Cl)cc2)CCN(Cc2c[nH]c3ccccc23)CC1 .
## Output 47

## Input Recall and state the measured Population Mitotic Cells (%) for O=C1NCN(c2ccccc2)C12CCN(CCCOc1ccc(F)cc1)CC2 [SPIRAMIDE] .
## Output 42

---

System: Fibroblast
Assay: Multiplex assay against human fibroblast
Assay type: toxicity, cell-based
Conditions: 12 h, 1 µM, compound concentration 1 uM, replicate 1
Label f if Population Healthy Nuclei (%) falls below 40%; label t in every other case.

> print(dat)
                                   compound  answer.label
1  COc1cccc([C@@H](C)NCCCc2ccccc2Cl)c1.Cl [TECALCET HYDROCHLORIDE]             t
2  CN1CCN(c2ccc(OC(F)(F)F)c(Nc3ncc4c(n3)-c3c(c(C(N)=O)nn3CCO)CC4)c2)CC1             f
3  CN(C)CC#Cc1ccc(OCCCc2sc(N3CCc4cccc(C(=O)Nc5nc6ccccc6s5)c4C3)nc2C(=O)O)c(F)c1             t
4  C=CC(=O)Nc1cc2c(Nc3ccc(F)c(Cl)c3)ncnc2cc1OCCCN1CCOCC1.Cl.Cl [CANERTINIB DIHYDROCHLORIDE]             t
5  Cl.N#Cc1ccc2[nH]cc(CCCCN3CCN(c4ccc5oc(C(N)=O)cc5c4)CC3)c2c1 [VILAZODONE HYDROCHLORIDE]             f
6  Cc1c(-c2ccc(O)cc2)n(Cc2ccc(OCCN3CCCCCC3)cc2)c2ccc(O)cc12             f

Pending compound:
## Input Hello, I need to know if Cc1nc(Nc2n[nH]c3c2CN(C(=O)N[C@H](CN(C)C)c2ccccc2)C3(C)C)c2sccc2n1 has measured Population Healthy Nuclei (%) not below 40%. Thanks!
## Output t

---

Test system: U2OS
Assay: Multiplex assay against U2OS
Assay type: toxicity, cell-based
Conditions: human, 48 h, 10 µM, compound concentration 10 uM, replicate 2
Recorded Population Mitochondria Different-Phenotype (%) for the following compounds

Example entries begin here.
> print(dat)
                                   compound  recorded.measurement
1  Cc1csc2c(N[C@@H](C)CN3CCN(S(=O)(=O)c4ccc(Cl)c(Cl)c4)CC3)ncnc12                   97%
2  CN1CCN(c2ccc(OC(F)(F)F)c(Nc3ncc4c(n3)-c3c(c(C(N)=O)nn3CCO)CC4)c2)CC1 [ONVANSERTIB]                   67%
3  CN1CCC[C@@H]1CCO[C@](C)(c1ccccc1)c1ccc(Cl)cc1.O=C(O)/C=C/C(=O)O [CLEMASTINE FUMARATE]                   72%

Proceed to the following item.
## Input Recall and state the measured Population Mitochondria Different-Phenotype (%) for CCOCCn1cc(C(=O)Nc2ccc(-n3nc(-c4cccnc4)cc3C(F)(F)F)cn2)ccc1=O [BI 1935] .
## Output 30%

---

Test system: Fibroblast
Test: Multiplex assay against human fibroblast
Assay type: toxicity, cell-based
Conditions: 48 h, 1 µM, compound concentration 1 uM, replicate 2
Response field label: string, one of 1 (yes) (Population Pyknosed Nuclei (%) strictly below 2%) or 0 (no).

> print(dat)
                                   compound  answer.label
1  C=CC(=O)Nc1cccc(C(=O)Nc2ccc(Nc3cc(-c4[nH]c(SC)nc4C)ccn3)cc2)c1       1 (yes)
2  CN1CCC[C@@H]1CCO[C@](C)(c1ccccc1)c1ccc(Cl)cc1.O=C(O)/C=C/C(=O)O [CLEMASTINE FUMARATE]       1 (yes)
3  CN1CCCC(n2nc(Cc3ccc(Cl)cc3)c3ccccc3c2=O)CC1.Cl (stereo unspecified) [AZELASTINE HYDROCHLORIDE]        0 (no)
4  CN1CCN(c2ccc(OC(F)(F)F)c(Nc3ncc4c(n3)-c3c(c(C(N)=O)nn3CCO)CC4)c2)CC1 [ONVANSERTIB]        0 (no)
5  Cc1cc(C)cc(-c2cnc3cc(Cl)c(-c4cccc(O)c4)cc3c2OCCCN)c1        0 (no)
6  Cc1nc(-c2ccc(-c3ccc(C(=O)N4CCc5cc6c(cc54)C4(CCN(C)CC4)CO6)cc3)c(C)c2)no1 [SB-224289]       1 (yes)

## Input Determine whether this compound shows Population Pyknosed Nuclei (%) lower than 2% (ties excluded): O=C1NCN(c2ccccc2)C12CCN(CCCOc1ccc(F)cc1)CC2 [SPIRAMIDE]
## Output 1 (yes)

## Input Determine whether this compound shows Population Pyknosed Nuclei (%) lower than 2% (ties excluded): CN(C)C(=O)N[C@H]1CC[C@H](CCN2CCN(c3cccc(Cl)c3Cl)CC2)CC1.Cl [CARIPRAZINE HYDROCHLORIDE]
## Output 0 (no)

## Input Determine whether this compound shows Population Pyknosed Nuclei (%) lower than 2% (ties excluded): C[C@@H](NCCCc1cccc(C(F)(F)F)c1)c1cccc2ccccc12.Cl [CINACALCET HYDROCHLORIDE]
## Output 1 (yes)

## Input Determine whether this compound shows Population Pyknosed Nuclei (%) lower than 2% (ties excluded): COc1cccc([C@@H](C)NCCCc2ccccc2Cl)c1.Cl [TECALCET HYDROCHLORIDE]
## Output 1 (yes)

## Input Determine whether this compound shows Population Pyknosed Nuclei (%) lower than 2% (ties excluded): Cc1c(-c2ccc(O)cc2)n(Cc2ccc(OCCN3CCCCCC3)cc2)c2ccc(O)cc12 [BAZEDOXIFENE]
## Output 0 (no)

## Input Determine whether this compound shows Population Pyknosed Nuclei (%) lower than 2% (ties excluded): Cc1csc2c(N[C@@H](C)CN3CCN(S(=O)(=O)c4ccc(Cl)c(Cl)c4)CC3)ncnc12
## Output 1 (yes)

---

Tested on: U2OS
Assay: Multiplex assay against U2OS
Format: toxicity, cell-based
Details: human, 24 h, 1 µM, compound concentration 1 uM, replicate 2
Categories are defined by ranges of Total Cell Count, namely class 0 = under 70, class 1 = from 70 up to 90, class 2 = 90 and over

# example entries with known answers
> print(dat)
                                   molecule  answer.label
1  CC(C)NCC(O)COc1ccc(CCOCC2CC2)cc1.Cl (configuration not stated) [BETAXOLOL HYDROCHLORIDE]       class 0
2  Cn1cc(-c2[nH]c3cc(NC(=O)[C@H](N)C4CCCCC4)cc4c3c2C=NNC4=O)cn1       class 0
3  COc1cc(-n2cnc3cc(-c4ccc(Cl)cc4)sc3c2=O)ccc1OCCN1CCCC1       class 1

## Input Which class is correct for the following molecule? C[C@@]1(C(=O)Nc2ccc(F)nc2)CCCN1c1nc(Nc2cc(C3CC3)n[nH]2)c2cccn2n1
## Output class 2
